molecular target: human CA-XII (Homo sapiens); construct: purchased Creative BioMart CA12-261H; assay: Surface Plasmon Resonance (SPR) binding kinetics to recombinant human CA-XII (Biacore 8K, single-cycle kinetics, 1:1 binding model); settings: read-out: CAXII KD, Chelated Metal: Lu-175, 25° C., pH 7.4
Sequence (O43570 25-354): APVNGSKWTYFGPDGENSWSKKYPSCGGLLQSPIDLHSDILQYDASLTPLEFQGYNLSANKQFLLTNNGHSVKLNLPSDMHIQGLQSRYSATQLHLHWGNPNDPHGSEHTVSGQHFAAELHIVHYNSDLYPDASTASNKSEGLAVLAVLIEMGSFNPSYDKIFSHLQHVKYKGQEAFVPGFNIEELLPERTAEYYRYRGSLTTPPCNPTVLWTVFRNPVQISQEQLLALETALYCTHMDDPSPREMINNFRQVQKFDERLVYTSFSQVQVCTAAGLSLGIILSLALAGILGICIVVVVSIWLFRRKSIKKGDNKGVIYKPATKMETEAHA
Reported Kd is given for each of the following compounds.

Examples with their reported Kd follow.
SMILES_STRUCTURE: CC(CCC(=O)N[C@@H](CC(=O)N[C@@H](CC(=O)N1CCN(C(=O)NCCOCCNC(=O)CN2CCN(CC(=O)O)CCN(CC(=O)O)CCN(CC(=O)O)CC2)C[C@@H]1CCCCn1cc(CCCC(=O)Nc2nnc(S(N)(=O)=O)s2)nn1)C(=O)O)C(=O)O)(c1ccc(O)cc1)c1ccc(O)cc1.[Lu+3]
SYSTEM_NAME: human CA-XII (Homo sapiens)
Kd: 2.5 to 10 nM

SMILES_STRUCTURE: CC(CCC(=O)N1CCC(C(=O)O)(C(=O)NCC(=O)N[C@@H](CCCCn2cc(CCCC(=O)Nc3nnc(S(N)(=O)=O)s3)nn2)C(=O)NCCOCCOCCNC(=O)CN2CCN(CC(=O)O)CCN(CC(=O)O)CCN(CC(=O)O)CC2)CC1)(c1ccc(O)cc1)c1ccc(O)cc1.[Lu+3]
SYSTEM_NAME: human CA-XII (Homo sapiens)
Kd: > 10 nM

Ask: Tell us which Kd value is on record for CC(CCCC(=O)N1CCC(C(N)=O)(C(=O)NCC(=O)NC2(C(=O)NCCn3nnc(C45CC(C(=O)Nc6nnc(S(N)(=O)=O)s6)(C4)C5)c3C(=O)O)CCN(C(=O)CN3CCN(CC(=O)O)CCN(CC(=O)O)CCN(CC(=O)O)CC3)CC2)CC1)(c1ccc(O)cc1)c1ccc(O)cc1.[Lu+3]
Reply: > 10 nM

Ask: Tell us which Kd value is on record for CC(CCC(=O)N[C@@H](CC(=O)N[C@@H](CC(=O)NC1(C(=O)NCCOCCOCCNC(=O)CN2CCN(CC(=O)O)CCN(CC(=O)O)CCN(CC(=O)O)CC2)CN(C(=O)Cn2cc(CCCC(=O)Nc3nnc(S(N)(=O)=O)s3)nn2)C1)C(=O)O)C(=O)O)(c1ccc(O)cc1)c1ccc(O)cc1.[Lu+3]
Reply: 2.5 to 10 nM

Ask: Tell us which Kd value is on record for NS(=O)(=O)c1nnc(NC(=O)C23CC(c4cn(C[C@H]5CN(C(=O)CN6CCN(CC(=O)O)CCN(CC(=O)O)CCN(CC(=O)O)CC6)CCN5c5nccc(NCCc6n[nH]c7ccccc67)n5)nn4)(C2)C3)s1.[Lu+3]
Reply: > 10 nM

Ask: Tell us which Kd value is on record for CC(CCC(=O)N[C@@H](CC(=O)N[C@@H](CC(=O)NC1(C(=O)NCCn2cc(C34CC(C(=O)Nc5nnc(S(N)(=O)=O)s5)(C3)C4)nn2)CCN(C(=O)CN2CCN(CC(=O)O)CCN(CC(=O)O)CCN(CC(=O)O)CC2)CC1)C(=O)O)C(=O)O)(c1ccc(O)cc1)c1ccc(O)cc1.[Lu+3]
Reply: > 10 nM

Ask: Tell us which Kd value is on record for NS(=O)(=O)c1nnc(NC(=O)C23CC(c4cn(CCNC(=O)[C@@H]5CN(C(=O)CN6CCN(CC(=O)O)CCN(CC(=O)O)CCN(CC(=O)O)CC6)CCN5C(=O)CNC(=O)C5(C(=O)O)CCN(C(=O)c6ccc(C7CC7)nn6)CC5)nn4)(C2)C3)s1.[Lu+3]
Reply: > 10 nM
